Each recorded value in this set is attributed to PubChem BioAssay (NCI).

tested on: SK-MEL-2 melanoma; experiment: NCI tumour cell line growth inhibition, 48 h; in the data active = GI50 below about 0.43 µM; inactive = the rest
Valid outcomes are listed here; reply with one: active, inactive

Solved entries (count: 2):
- COc1cc2cc(Oc3ccc(NC(=O)Nc4cc(C(F)(F)F)cc(C(F)(F)F)c4)cc3)c(C)nc2cc1OCCN1CCOCC1: inactive
- COc1cc(/C=C/C(=O)c2cccc(-n3cc(-c4cc(OC)c(OC)c(OC)c4)[nH]c3=O)c2)cc(OC)c1OC: inactive

[in] Per the records of this test, what outcome belongs to `O=C1NC(=NCCc2ccc(F)cc2)S/C1=C\c1ccc2ncccc2c1` ?
[out] inactive

[in] And `CCOC(=O)c1c(-c2ccccc2)[n+](=O)c2cc(Cl)c(Cl)cc2n1[O-]` ?
[out] inactive

[in] And CSC1=NC(=Nc2c(C)cccc2C)C2(CCC(C(C)(C)C)CC2)N1c1ccc(Cl)cc1 (stereo not drawn) ?
[out] inactive

[in] And O=C1Nc2ccc(Br)cc2C12CC(c1ccccc1)=NN2 (stereo not drawn) ?
[out] inactive

[in] And COc1ccc2c(c1)OC(N)=C(C#N)C2c1cc(OC)c(OC)c(OC)c1 (stereo not drawn) ?
[out] active

[in] And `CN1CCN(CC(=O)N(C)c2ccc(N=C(c3ccccc3)c3c(O)[nH]c4ccc(C#N)cc34)cc2)CC1` ?
[out] inactive

[in] And `O=C(Nc1ccc(Oc2ccc3nc(NC(=O)c4ccco4)[nH]c3c2)cc1)Nc1cc(C(F)(F)F)ccc1F` ?
[out] inactive

[in] And `C#Cc1cccc(Nc2ncnc3cc(NC(=O)CCl)ccc23)c1` ?
[out] inactive

[in] And `COc1cc[c]([Sn]([c]2ccc(OC)cc2)([c]2ccc(OC)cc2)[c]2ccc(OC)cc2)cc1` ?
[out] inactive

[in] And COc1cc2c(c(OC)c1OC)-c1ccc(NN(C(=O)c3ccccc3)C(=O)c3ccccc3)c(=O)cc1[C@@H](NC(C)=O)CC2 (tested in a mixture with another compound) ?
[out] inactive

[in] And `CCOC(=O)[C@@H](C)C[C@H](Cc1ccccc1)NC(=O)c1csc([C@@H](C[C@H](C(C)C)N(C)C(=O)[C@@H](NC(=O)[C@H]2CCCCN2C)C(C)(C)CC)OC(C)=O)n1` ?
[out] active

[in] And `O=C1NC(=NCc2ccccc2Cl)S/C1=C\c1ccc2ncccc2c1` ?
[out] inactive

[in] And `C[C@@]1([C@H](OC(=O)c2ccccc2)C(N)=O)CO1` ?
[out] inactive

[in] And `O=C1/C(=C/c2ccc(Cl)c(Cl)c2)CN(C(=O)C(Cl)Cl)C/C1=C\c1ccc(Cl)c(Cl)c1` ?
[out] inactive

[in] And `CC(=O)Nc1ccc(C(=O)CCl)cc1` ?
[out] inactive

[in] And `COc1cc(CNCCCCCCN2C(=O)c3cccc4cccc(c34)C2=O)ccc1O` ?
[out] inactive

###

test system: HCT-15 colon; assay: NCI tumour cell line growth inhibition, 48 h
Reported TGI is given for each of the following compounds.
Please respond with the number in µM and leave the unit unwritten.

Example results:
- O=C(O)c1nc2ccccc2nc1Nc1ccc(Cl)c(Cl)c1: 36.1
- c1ccc(-c2oc(-c3ccccc3)c(CN3CCCCC3)c2CN2CCCCC2)cc1: 10.3
- CN(C)CCNC(=O)c1cccc2c1nc(-c1ccc(F)cc1)c1ccccc12: 13.9

Continue with the compound presented below.
[in] What TGI value was documented for this compound, O=C1Nc2ccc(Br)cc2C12CC(c1ccccc1)=NN2 (centres undefined) ?
[out] 48.8
